Test: Pharmacokinetic study in normal and arthritic model rats after oral administration of APR extract (UPLC-MS/MS of plasma)
Conditions: Sprague-Dawley, rat, plasma, po, 4.1 mL/kg, t 1/2, normal rats, oral APR extract 4.1 mL/kg, mean ± SD, n = 6
In this section we review reported half-life values for a set of compounds.

compound | half-life, h
O=C(/C=C/c1ccc(O)c(O)c1)O[C@H]1[C@H](O)C[C@](O)(C(=O)O)C[C@H]1O | 34.5
COc1ccc2ccc(=O)oc2c1CC=C(C)C | 13.4
O=C(C=Cc1ccc(O)c(O)c1)OC1CC(O)(C(=O)O)CC(O)C1O (stereo not shown) | 39.9
C/C=C(/C)C(=O)OC(C)(C)[C@@H]1Cc2c(ccc3ccc(=O)oc23)O1 | 16.4
